# EC50 values compiled below
# PROTOCOL NOTES: viability of HCT116 lacking mutant beta-catenin – cell-based, human colon tumor, dose response (AID 1045);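 also: HCT116 colon tumor cells with beta catenin knocked out; cells exposed to compound for 60 hours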
# Type: functional
Calls of active or inactive are those of the source. No rule for the calls is given here.

Recorded results for 3 compounds are shown here.
For `CCCOc1ccc(-c2nc(C#N)c(NCCCn3ccnc3)o2)cc1` , what is its reported EC50? 10.2 µM (active)

What value of EC50 has been reported for the following compound? `COC(=O)c1sccc1NC(=O)/C=C/c1ccc(Cl)cc1Cl` 51.4 µM (active)

Can you look up the measured EC50 of `CC1=CC(C)(C)Nc2ccc(OC(=O)CN3C(=O)c4ccccc4C3=O)cc21` for me? 5.85 µM (active)

Further cases:
Quick one: EC50 for `COc1cc(/C=C(\C#N)c2nc3ccccc3s2)ccc1OCC(=O)Nc1ccccc1` ? 560 µM (active)
